Every entry's value here was drawn from PubChem BioAssay (NCI).

- Tested on: T-47D breast
- method summary: NCI tumour cell line growth inhibition, 48 h
Where TGI equals or exceeds 20 µM, the correct label is YES; where it does not, the label is NO.

Would you say `CCOCC(=O)N[C@H]1CCc2cc(OC)c(OC)c(OC)c2-c2ccc(OC)c(=O)cc21` shows TGI at minimum 20 µM? YES

Would you say CC(C)(C)C(=O)OCOP(=O)(OCOC(=O)C(C)(C)C)OCC1OC(n2ccc(=O)[nH]c2=O)C(N=[N+]=[N-])C1O (centres undefined) shows TGI at minimum 20 µM? NO

Would you say `CC/C=C\C[C@H](F)C/C=C1/C(=O)C=C[C@@H]1C/C=C\CCCC(=O)O` shows TGI at minimum 20 µM? YES

Would you say CC1(C)OC2=C(CC1Br)C(=O)C(=O)c1ccccc12 (centres undefined) shows TGI at minimum 20 µM? NO

Would you say `O=C1c2[nH]c3ccc(Br)cc3c2CCN1Cc1ccc(Cl)cc1` shows TGI at minimum 20 µM? YES

Would you say COC(=O)C1=C(O)C(C(=O)OC)[C@]2(O)[C@H](C(=O)OC)[C@H]1C[C@@H](c1ccc(Cl)cc1)[C@H]2C(=O)OC (some centres undefined) shows TGI at minimum 20 µM? YES

Would you say `O=C1c2ccccc2C(=O)N1CCc1ncc[nH]1` shows TGI at minimum 20 µM? YES

Would you say `O=C(O)/C=C(\c1nc2ccc([N+](=O)[O-])cc2[nH]1)c1cc(Cl)ccc1O` shows TGI at minimum 20 µM? NO

---

- Test system: LOX IMVI melanoma
- method summary: NCI tumour cell line growth inhibition, 48 h
quantity kind: TGI

Look up TGI with LOX IMVI melanoma for this compound: `COc1cc(Nc2nc3ccccc3nc2-c2cccs2)cc(OC)c1OC` > 100 µM

Look up TGI with LOX IMVI melanoma for this compound: `O=S(=O)(SC1=NCCN1)c1ccc2ccccc2c1` > 100 µM

Look up TGI with LOX IMVI melanoma for this compound: `Cc1cc2c(cc1C(=O)CCC(=O)O)CC1(C2)Cc2cc(C)c(C(=O)CCC(=O)O)cc2C1` > 100 µM

Look up TGI with LOX IMVI melanoma for this compound: `COc1ccc2c(c1)CCCN2c1c2ccccc2nc2ccccc12` 12.1 µM

Look up TGI with LOX IMVI melanoma for this compound: `COc1cc2ncn(-c3cc(OCc4cccs4)c(C(N)=O)s3)c2cc1OC` > 19.2 µM

Look up TGI with LOX IMVI melanoma for this compound: `O=C1Nc2ccccc2C1(c1ccc(O)cc1)c1ccc(O)cc1` 35.9 µM

Look up TGI with LOX IMVI melanoma for this compound: `C/C(Cl)=N/OC(=O)Nc1ccc(S(N)(=O)=O)c(C)c1` 6.19 µM

Look up TGI with LOX IMVI melanoma for this compound: `CC[C@@]1(c2ccccc2)C2=C(CC(C)(C)CC2=O)Nc2[nH]ncc21` > 100 µM

Look up TGI with LOX IMVI melanoma for this compound: CC1(C)OC2=C(CC1Br)C(=O)C(=O)c1ccccc12 (stereo not given) 3.39 µM

Look up TGI with LOX IMVI melanoma for this compound: COc1cc(/C=C2/SC(c3ccccc3)N(c3ccccc3Cl)C2=O)cc(OC)c1OC (stereo not given) 41.7 µM

Look up TGI with LOX IMVI melanoma for this compound: CC(=O)OCC1OC(NC(=S)N/N=C2\CC(c3ccccc3)Oc3ccccc32)C(OC(C)=O)C(OC(C)=O)C1OC(C)=O (stereo not given) > 100 µM

Look up TGI with LOX IMVI melanoma for this compound: `CC(=O)N(C(C)=O)n1c(Cc2ccc(Cl)cc2)n[nH]c1=O` > 100 µM

Look up TGI with LOX IMVI melanoma for this compound: `CCc1ccccc1NC(=O)C1=C(C)NC(C)=C(C(=O)Nc2ccccc2CC)C1c1ccc2c(c1)OCO2` 88.7 µM

Look up TGI with LOX IMVI melanoma for this compound: `C[C@]12CC[C@H](OC(=O)Cc3ccc(N(CCCl)CCCl)cc3)CC1=CC[C@@H]1[C@@H]2CC[C@]2(C)C(=O)CC[C@@H]12` > 100 µM

Look up TGI with LOX IMVI melanoma for this compound: `C=C(C[C@](O)(C(=O)/C=C/c1ccc(Cl)cc1)C(=O)OC)c1ccccc1` 2.24 µM

Look up TGI with LOX IMVI melanoma for this compound: `CCOC(=O)CCCNC(=O)CCCCC(=O)N(C)C` > 100 µM

Look up TGI with LOX IMVI melanoma for this compound: CCCC(=O)OCC1OC(n2cnc3c(=S)nc[nH]c32)C(OC(=O)CCC)C1OC(=O)CCC (stereo not given) > 100 µM

Look up TGI with LOX IMVI melanoma for this compound: CC(SC(=S)N1CCOCC1)c1cc2oc(=O)n(C)c2cc1Cl (stereo not given) > 100 µM

Look up TGI with LOX IMVI melanoma for this compound: `CCOC(=O)/C(=C\c1ccccc1)C(=O)O` > 100 µM

Look up TGI with LOX IMVI melanoma for this compound: `Nc1c(-c2ccc(Cl)cc2)[n+]([O-])c2ccccc2[n+]1[O-]` > 100 µM

Look up TGI with LOX IMVI melanoma for this compound: `O=C(O)COCC(=O)N(CCOCCN(Cc1ccccc1)C(=O)COCC(=O)O)Cc1ccccc1` > 100 µM

Look up TGI with LOX IMVI melanoma for this compound: Nc1nc(I)nc2c1ncn2C1OC(COS(N)(=O)=O)C(O)C1O (stereo not given) 0.0251 µM

Look up TGI with LOX IMVI melanoma for this compound: `CN(CCC(=O)O)C1=Nc2ccc(Cl)cc2C(c2ccccc2)=[N+]([O-])C1` > 100 µM

Look up TGI with LOX IMVI melanoma for this compound: `CCOC(=O)C1(Cc2ccccc2)C=CN(C(=O)c2ccccc2)C=C1` > 100 µM

Look up TGI with LOX IMVI melanoma for this compound: COCCCNC(=O)C1C(=O)C(=O)N(CCCOC)C1=O (stereo not given) > 100 µM

---

- System: SN12C renal
- method summary: NCI tumour cell line growth inhibition, 48 h; in the data active means GI50 below about 0.43 µM; inactive means the rest
The categories you may choose from are true (1) = active, false (0) = inactive

How was `CC/C=C\C[C@@H](O)C/C=C1/C(=O)C=C[C@H]1C/C=C\CCCC(=O)OC` classified in this test? false (0)

How was CC1(C)OC2=C(CC1Br)C(=O)C(=O)c1ccccc12 (stereo not given) classified in this test? false (0)

How was `Nc1nc(N(Cc2ccccc2)c2ccccc2)c2cn[nH]c2n1` classified in this test? false (0)

How was `CS(=O)(=O)c1ccc(-n2nc(C(F)(F)F)cc2OC2CCCC2)cc1` classified in this test? false (0)

How was CCCCCCCC(=O)OCC/C=C/C1OC1C1OC(=O)/C=C\C=C\c2nc(oc2C)/C=C(/C)CCC2OC2C1OC(=O)NC(C)=O (stereo not given) classified in this test? true (1)

---

- Tested on: SR leukemia
- method summary: NCI tumour cell line growth inhibition, 48 h
quantity kind: TGI (µM)
Write down the numeric answer in µM and omit the unit.

For the compound `COc1cc2ncnc(Nc3cccc(Cl)c3)c2cc1OC` , what TGI is on record? 24.1

For the compound `O=C(N/C(=C\c1cccc([N+](=O)[O-])c1)c1nc2ccc([N+](=O)[O-])cc2[nH]1)c1ccccc1` , what TGI is on record? 65.6

For the compound `CCOC(=O)C1(Cc2ccccc2)C=CN(C(=O)c2ccccc2)C=C1` , what TGI is on record? 67.5

For the compound CCN(CC)CCCC(C)Nc1c2ccc(Cl)cc2nc2ccc(O)cc12 (configuration not stated) , what TGI is on record? 7.11

---

- Test system: SF-268 CNS
- method summary: NCI tumour cell line growth inhibition, 48 h
quantity kind: TGI

For the compound `COc1ccc(N2C(=O)/C(=C/c3ccc(N(CCC#N)CCC#N)cc3C)N=C2c2cc([N+](=O)[O-])ccc2Cl)cc1` , what TGI is on record? > 63.1 µM

For the compound COC(=O)/C=C(/C=C1/C(C#N)=C(N)N(c2ccc(Cl)cc2)C1(C)/C(=C/C(=O)OC)C(=O)OC)C(=O)OC (centres undefined) , what TGI is on record? > 100 µM

For the compound `O=C(O)c1nn(-c2ccccc2-c2n[nH]c(=O)[nH]c2=O)c(=O)[nH]c1=O` , what TGI is on record? > 100 µM

For the compound `COc1nc(N=P(c2ccccc2)(c2ccccc2)c2ccccc2)cc(=O)[nH]1` , what TGI is on record? > 100 µM

For the compound `Nc1cccc(S(=O)(=O)NCC(=O)O)c1` , what TGI is on record? > 100 µM

For the compound COCCCNC(=O)C1C(=O)C(=O)N(CCCOC)C1=O (centres undefined) , what TGI is on record? > 100 µM

For the compound `COc1ccc2nc3c(C(=O)NCCN(C)C)cccc3nc2c1` , what TGI is on record? 48.5 µM

For the compound `Cc1cc(C)c2c(O)c(S(=O)(=O)c3ccc(Cl)cc3)c(=O)oc2c1` , what TGI is on record? > 100 µM

For the compound `CC(CCC(=O)O)(c1ccc(O)cc1)c1ccc(O)cc1` , what TGI is on record? > 100 µM

For the compound `c1ccc(-c2nc3ccccc3n3c(CN4CCCCC4)nnc23)cc1` , what TGI is on record? > 100 µM

For the compound `CC(C)NC(NC(C)C)=C(S(=O)(=O)C(F)(F)C(F)(F)C(F)(F)C(F)(F)F)S(=O)(=O)C(F)(F)C(F)(F)C(F)(F)C(F)(F)F` , what TGI is on record? > 100 µM

For the compound O=C1CCC2(c3ccccc3)Nc3ccncc3N12 (centres undefined) , what TGI is on record? > 10 µM

For the compound `CN(C)CCNC(=O)c1cccc2ccc(-c3ccncc3)nc12` , what TGI is on record? 21.7 µM

For the compound `Cc1ccc(NC(=O)CC(=O)n2nc(C)c(N=Nc3ccccc3C(=O)O)c2C)cc1` , what TGI is on record? > 100 µM

For the compound `COc1cc[nH]c1/C=C1\C(=O)Nc2ccc(F)c(C#CC3(O)CCNCC3)c21` , what TGI is on record? 0.848 µM

For the compound `Cc1nc(-c2cc3c(ccc4ccccc43)oc2=O)cs1` , what TGI is on record? > 100 µM

For the compound `COc1cc(/C=N\N(C)C)cc(/C=N/N(C)C)c1O` , what TGI is on record? > 100 µM

For the compound `c1ccc(-c2cn3c(nc4ccccc43)c(-c3ccccc3)n2)cc1` , what TGI is on record? > 100 µM

For the compound CC(C)(C)C(=O)OCOP(=O)(OCOC(=O)C(C)(C)C)OCC1OC(n2ccc(=O)[nH]c2=O)C(N=[N+]=[N-])C1O (centres undefined) , what TGI is on record? 17.8 µM

For the compound Nc1nc2c(nnn2C2CC(O)C(CO)O2)c(=O)[nH]1 (centres undefined) , what TGI is on record? > 100 µM

For the compound `O=C1CSSCC(=O)Nc2ccccc2N1` , what TGI is on record? > 100 µM

For the compound CCN(CC)CCCC(C)Nc1c2ccc(Cl)cc2nc2ccc(O)cc12 (centres undefined) , what TGI is on record? 11.3 µM

For the compound c1nc(N2CC2)c2cnn(C3CCCCO3)c2n1 (centres undefined) , what TGI is on record? > 100 µM

For the compound `Cc1ccc2c(c1)Sc1c(ccc3ccccc13)N2` , what TGI is on record? > 100 µM

For the compound `O=P1(O)c2ccccc2CCc2ccccc21` , what TGI is on record? > 100 µM

For the compound `COc1ccc2c(c1)[n+](=O)c(C(=O)C/C(=N/OCCCc1ccccc1)C(=O)NC13CC4CC(CC(C4)C1)C3)c(C)n2[O-]` , what TGI is on record? > 100 µM

For the compound O=C(CC1(O)C(=O)Nc2ccccc21)c1ccncc1 (centres undefined) , what TGI is on record? > 100 µM

For the compound `CCOCC(=O)N[C@H]1CCc2cc(OC)c(OC)c(OC)c2-c2ccc(OC)c(=O)cc21` , what TGI is on record? > 100 µM

For the compound `CCOC(=O)c1cc2c([nH]1)c(O)cc1c2ccn1Cc1ccccc1` , what TGI is on record? 51.3 µM
